B1: INTS3 (parent)
chain: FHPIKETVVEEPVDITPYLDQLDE

variants of: B1; experiment: protein stability index of a GFP-peptide fusion (GPS, HEK-293T) (PSI 1-6); higher = more stable; details: c terminus: a fixed tail appended;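 note: lentivirally expressed fusions sorted by FACS into six bins by GFP to DsRed ratio, PSI derived from sequencing read proportions per bin multiplied by bin number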
Would you mind labelling by protein stability index? At or over 3 is Yes, under is No.

Previously resolved entries follow.
T16A ... Yes
K5W ... No

Exam item: Identify whether the reported protein stability index of the following variant is 3 or greater: P3A
Marked response: Yes

Exam item: Identify whether the reported protein stability index of the following variant is 3 or greater: H2T
Marked response: Yes

Exam item: Identify whether the reported protein stability index of the following variant is 3 or greater: E6Y
Marked response: No

Exam item: Identify whether the reported protein stability index of the following variant is 3 or greater: K5H
Marked response: Yes

Exam item: Identify whether the reported protein stability index of the following variant is 3 or greater: I15N
Marked response: No
